Test system: Monochoria vaginalis
Experiment: Test Example 12: herbicidal effect test by treatment during growing period in paddy field
Format: in vivo
Conditions: 120 g/10a; treatment seven days after sowing in flooded paddy pot; assessed 14 days after treatment
// values below are reported Weed suppression rate (%) Monochoria vaginalis
Output spec: scalar in %, unitless text.

[
  {
    "Cpd Smiles": "CC(C)N(C(=O)n1cnn(S(=O)(=O)C2CC2)c1=O)c1ccc(Cl)cc1Br",
    "Value Measured": 80
  },
  {
    "Cpd Smiles": "CC(C)N(C(=O)n1cnn(S(=O)(=O)C2CCCCC2)c1=O)c1ccc(Br)cc1Cl",
    "Value Measured": 100
  }
]

**Query** Endpoint output: Weed suppression rate (%) Monochoria vaginalis of CC(C)N(C(=O)n1cnn(S(=O)(=O)c2cccs2)c1=O)c1c(F)c(F)cc(F)c1F . Value?
**Result** 90

**Query** Endpoint output: Weed suppression rate (%) Monochoria vaginalis of Cc1cc(Cl)ccc1N(C(=O)n1cnn(S(=O)(=O)C2CCCCC2)c1=O)C(C)C . Value?
**Result** 80

----------
Test system: Echinochloa crus-galli
Test: Test Example 12: herbicidal effect test by treatment during growing period in paddy field
Assay type: in vivo
Settings: 120 g/10a; treatment seven days after sowing in flooded paddy pot; assessed 14 days after treatment
Recorded Metric: Weed suppression rate (%) Echinochloa crus-galli

Reference set (7 entries):
[
  {
    "Cpd Smiles": "Cc1cc(C)c(S(=O)(=O)n2ncn(C(=O)N(C)c3ccc(F)cc3F)c2=O)c(C)c1",
    "Value Measured": "100%"
  },
  {
    "Cpd Smiles": "CC(C)N(C(=O)n1cnn(S(=O)(=O)C(C)C)c1=O)c1ccccc1F",
    "Value Measured": "100%"
  },
  {
    "Cpd Smiles": "Cc1ccc(N(C(=O)n2cnn(S(=O)(=O)CCl)c2=O)C(C)C)c(F)c1",
    "Value Measured": "90%"
  },
  {
    "Cpd Smiles": "CC(C)N(C(=O)n1cnn(S(=O)(=O)C2CC2)c1=O)c1ccc(F)cc1F",
    "Value Measured": "100%"
  },
  {
    "Cpd Smiles": "CC(C)N(C(=O)n1cnn(S(C)(=O)=O)c1=O)c1ccccc1F",
    "Value Measured": "90%"
  },
  {
    "Cpd Smiles": "CC(C)N(C(=O)n1cnn(S(=O)(=O)c2ccccc2F)c1=O)c1ccccc1",
    "Value Measured": "90%"
  },
  {
    "Cpd Smiles": "CC(C)N(C(=O)n1cnn(S(=O)(=O)N(C)C)c1=O)c1ccccc1F",
    "Value Measured": "90%"
  }
]

Now for the compound whose Weed suppression rate (%) Echinochloa crus-galli we want.
**Query** Endpoint output: Weed suppression rate (%) Echinochloa crus-galli of CC(C)N(C(=O)n1cnn(S(=O)(=O)c2cccc(C(F)(F)F)c2)c1=O)c1ccc(Cl)cc1Br . Value?
**Result** 100%

----------
Tested on: Lindernia pyxidaria
Assay: Test Example 12: herbicidal effect test by treatment during growing period in paddy field
Format: in vivo
Settings: 120 g/10a; treatment seven days after sowing in flooded paddy pot; assessed 14 days after treatment
// values below are reported Weed suppression rate (%) Lindemia pyxidaria

[
  {
    "Cpd Smiles": "Cc1ccc(N(C(=O)n2cnn(S(=O)(=O)c3ccc(C(C)(C)C)cc3)c2=O)C(C)C)c(F)c1",
    "Value Measured": "80%"
  },
  {
    "Cpd Smiles": "CC(C)N(C(=O)n1cnn(S(=O)(=O)c2ccc(F)cc2)c1=O)c1ccc(F)cc1F",
    "Value Measured": "90%"
  },
  {
    "Cpd Smiles": "CC(C)N(C(=O)n1cnn(S(=O)(=O)c2ccccc2F)c1=O)c1ccccc1F",
    "Value Measured": "80%"
  }
]

**Query** Endpoint output: Weed suppression rate (%) Lindemia pyxidaria of COc1ccc(S(=O)(=O)n2ncn(C(=O)N(c3c(F)cccc3F)C(C)C)c2=O)cc1 . Value?
**Result** 80%
